Kd values, listed per item
# Measured Target: RANKL (Homo sapiens, UniProt O14788)
# Sequence (O14788 143-317): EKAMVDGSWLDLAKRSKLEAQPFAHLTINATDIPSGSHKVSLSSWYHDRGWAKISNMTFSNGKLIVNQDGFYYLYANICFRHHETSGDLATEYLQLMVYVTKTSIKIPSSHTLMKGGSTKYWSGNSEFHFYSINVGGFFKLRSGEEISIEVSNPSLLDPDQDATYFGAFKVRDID
# Method: Fluorescence-based binding affinity assay, RANKL
# Run Parameters: RANKL 0.5 μM, PEG3350 5%, 25 mM Tri-HCl, 100 mM NaCl pH 7.5; read-out: Binding affinity (Kd), RANKL
# Method: For use in the binding assays, recombinant TNF and RANKL were expressed and purified as previously described.[84–86] Fluorescence intensity was measure with a Synergy H1 Multi-Mode Reader (BioTek) in 96-well microplates (black) at 25°C. […] During preparation of the solutions the buffer was firstly added to all wells followed by the ligand solution and finally the protein was added. […] Kd values were calculated as mean ± SEM from three independent experiments. […]
Report the value in µM with no unit label.

Some entries whose results are on file:
[[record]]
compound = "Cc1cc2occ(CN(C)CCN(C)Cc3cn(-c4cccc(C(F)(F)F)c4)c4ccccc34)c(=O)c2cc1C [SPD304, reference compound]"
measured_target = "RANKL (Homo sapiens, UniProt O14788)"
endpoint_name = "Kd"
unit_spec = "µM"
reading = 13.8

[[record]]
compound = "O=C(NNC(=NS(=O)(=O)c1ccc(-n2nc(C(F)(F)F)cc2-c2cccs2)cc1)N1CCCC1)c1ccc(Cl)cc1 [Compound T8]"
measured_target = "RANKL (Homo sapiens, UniProt O14788)"
endpoint_name = "Kd"
unit_spec = "µM"
reading = 6.32


Lab note: need Kd for COc1cc(OC(C)=O)c(-c2cc(OC(C)=O)c(OC)cc2OC(C)=O)cc1OC(C)=O [Compound T23] on RANKL (Homo sapiens, UniProt O14788), anyone have it? 7.25

* * *

Listing: Kd of selected compounds
# Measured Target: RANKL (Homo sapiens)
# Method: Fluorescence-based binding affinity assay, RANKL
# Run Parameters: RANKL 0.5 μM, PEG3350 2.5%, 25 mM Tri-HCl, 100 mM NaCl pH 7.5; read-out: Binding affinity (Kd), RANKL
Remember to follow the number with its unit.

[[record]]
compound = "O=C(NNC(=NS(=O)(=O)c1ccc(-n2nc(C(F)(F)F)cc2-c2cccs2)cc1)N1CCCC1)c1ccc(Cl)cc1"
reading = "6.15 µM"

[[record]]
compound = "COc1cc(OC(C)=O)c(-c2cc(OC(C)=O)c(OC)cc2OC(C)=O)cc1OC(C)=O"
reading = "7.44 µM"


Name the reported Kd value associated with the compound Cc1cc2occ(CN(C)CCN(C)Cc3cn(-c4cccc(C(F)(F)F)c4)c4ccccc34)c(=O)c2cc1C [SPD304, reference compound] 14.2 µM
